Origin of the recorded values: patent US20240376190A1

target: T1, FLAG-tagged human latent TGF-beta 1 (human, UniProt P01137 34-390); assay: SPR (BIACORE), antibody captured on anti-human Fc, antigen as analyte, pH 7.4
T1 construct: Co-expressed with human furin, purified on anti-FLAG resin and by gel filtration; also called human latent TGF-beta 1 (SLC); hSLC
pKd: −log10 of the molar value.

{"binder": "hT0947AE22-SG181 (antibody, human IgG1, kappa, V domains shown, Human IgG1; Heavy chain = VH + CH, light chain = VL + CL) VH: QVQLVESGGGVVQPGRSLRLSCAASGFHFSREAMNWIRQPPGKGLEWIGYIYTSGTTYRANWARGRFTISRDNSKNTLYLQMNSLRAEDTAVYYCARGWHIFGHHYWVMHFWGQGTLVTVSS VL: DIQMTQSPSSLSASVGDRVTITCQASQSISTYLAWYQQKPGQPPKLLIYAASTLESGVPSRFSGSGSGTDFTLTISSLQPEDFATYYCQSYSDGDSVIFGQGTKVEIKR", "pKd": 8.44}
